tested on: lambsquarters (Chenopodium album, CHEAL); assay: Pre-emerge test, greenhouse herbicide activity screening; format: in vivo; details: 63 g ai/ha; rating scale 0-100, 14 days after application
As shown below, each of these molecules has a reported Pre-emerge herbicidal activity, phytotoxicity rating CHEAL value.
Would you mind answering with just the numeric figure?

Solved entries:
# MOLECULE, READING
records = [
    ("CCCOC(=O)C(Cl)Cc1c(OC)c(Cl)cc(F)c1-n1c(=O)cc(C(F)(F)F)n(C)c1=O (single isomer, unassigned) [14-6]", 20),
    ("CCCCCOC(=O)C(C)(Cl)Cc1c(OC)c(Cl)cc(F)c1-n1c(=O)cc(C(F)(F)F)n(C)c1=O (stereo not shown) [14-37]", 100),
    ("COC(=O)C(Cl)Cc1c(OC)c(Cl)cc(F)c1-n1c(=O)cc(C(F)(F)F)n(C)c1=O (stereo not shown) [14-3]", 100),
    ("COc1c(Cl)cc(F)c(N2C(=O)c3ccccc3C2=O)c1NC(=O)c1ccc2ccccc2c1 [Compound 13-3]", 90),
    ("CCCCCCOC(=O)C(C)(Cl)Cc1c(OC)c(Cl)cc(F)c1-n1c(=O)cc(C(F)(F)F)n(C)c1=O (stereo not shown) [14-38]", 90),
]

Read off the recorded Pre-emerge herbicidal activity, phytotoxicity rating CHEAL for CCCCOC(=O)C(Cl)Cc1c(OC)c(Cl)cc(F)c1-n1c(=O)cc(C(F)(F)F)n(C)c1=O (single isomer, unassigned) [14-8] 70

Give Pre-emerge herbicidal activity, phytotoxicity rating CHEAL for the following molecule: C#CCOC(=O)C(Cl)Cc1c(OC)c(Cl)cc(F)c1-n1c(=O)cc(C(F)(F)F)n(C)c1=O (single isomer, unassigned) [14-20] 0

Provide Pre-emerge herbicidal activity, phytotoxicity rating CHEAL value for the following molecule: O=C(Nc1cc(Cl)ccc1N1C(=O)c2ccccc2C1=O)c1ccc2ccccc2c1 [Compound 13-5] 20

Return Pre-emerge herbicidal activity, phytotoxicity rating CHEAL (reported value) for this molecule: CCOC(=O)C(Br)Cc1c(OC)c(Cl)cc(F)c1-n1c(=O)cc(C(F)(F)F)n(C)c1=O (single isomer, unassigned) [14-33] 0

Identify measured Pre-emerge herbicidal activity, phytotoxicity rating CHEAL corresponding to CCOC(=O)C(C)(Cl)Cc1c(OC)c(Cl)cc(F)c1-n1c(=O)cc(C(F)(F)F)n(C)c1=O (stereo not shown) [14-34] 95

Value source: patent US6355799B1
